Measured Kd, listed per entry.
Target: T1, Recombinant human leptin binding domain (hLBD) (human, UniProt P48357 428-635, biotinylated with Sulfo-NHS-LC-Biotin in the yeast display assays; not labelled when immobilized in the plate binding assay)
T1 construct: CRH2 sub-domain of the leptin receptor; Prepared in the applicants' laboratory; also called soluble human leptin receptor; CHR2
T1 sequence (looked up): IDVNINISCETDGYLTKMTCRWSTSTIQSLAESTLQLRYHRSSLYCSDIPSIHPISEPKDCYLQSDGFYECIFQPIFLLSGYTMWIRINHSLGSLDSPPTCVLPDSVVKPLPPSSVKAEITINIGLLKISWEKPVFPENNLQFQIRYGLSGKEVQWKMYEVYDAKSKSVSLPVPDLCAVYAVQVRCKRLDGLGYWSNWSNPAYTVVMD
Test: yeast display, flow cytometry titration with biotinylated hLBD (FIG. 4A)

| binder | endpoint value |
| --- | --- |
| yeast-displayed mouse leptin clone H3 (D23G, L68M, S97F, S132Y) (ligand, UniProt P41160 22-167, looked up, not shown: large carriers; small tags and cut ends, mature; also called H15; H4) VPIQKVQDDTKTLIKTIVTRINGISHTQSVSAKQRVTGLDFIPGLHPILSLSKMDQTLAVYQQVLTSMPSQNVLQIANDLENLRDLLHLLAFSKSCFLPQTSGLQKPESLDGVLEASLYSTEVVALSRLQGYLQDILQQLDVSPEC | 91.7 nM |
| yeast-displayed mouse leptin clone H19 (D23G, T37A, G44D) (ligand, UniProt P41160 22-167, looked up, not shown: large carriers; small tags and cut ends, mature) VPIQKVQDDTKTLIKTIVTRINGISHTQSVSAKQRVAGLDFIPDLHPILSLSKMDQTLAVYQQVLTSLPSQNVLQIANDLENLRDLLHLLAFSKSCSLPQTSGLQKPESLDGVLEASLYSTEVVALSRLQGSLQDILQQLDVSPEC | 104 nM |

Query string: Retrieve Kd measured for yeast-displayed mouse leptin clone H30 (D23H) (ligand, UniProt P41160 22-167, looked up, not shown: large carriers; small tags and cut ends, mature) VPIQKVQDDTKTLIKTIVTRINHISHTQSVSAKQRVTGLDFIPGLHPILSLSKMDQTLAVYQQVLTSLPSQNVLQIANDLENLRDLLHLLAFSKSCSLPQTSGLQKPESLDGVLEASLYSTEVVALSRLQGSLQDILQQLDVSPEC and print it.
Result string: 59.5 nM

Values from patent US20130133089A1
